# ASSAY TEXT: pH in water of pH regulators before and after heat treatment
# Assay type: physicochemical
# CONDITION DETAILS: before heat treatment
REPORTED PROPERTY: pH in water before heat treatment
Lab note: record just the number, no unit beside it.

Please fill in: pH in water before heat treatment reported for O=P([O-])([O-])O.[Na+].[Na+] [Na2HPO4 2H2O, disodium hydrogen phosphate] = 6

Briefly, pH in water before heat treatment measured for `O=C([O-])[O-].[Mg+2]` : 6

Reported pH in water before heat treatment of `O.O.O.O.O.O.O.O.O.O.O.O.O=P([O-])([O-])[O-].[Na+].[Na+].[Na+]` : 10

Input O=C([O-])[O-].[Na+].[Na+] [Na2CO3, sodium carbonate] . Output pH in water before heat treatment: 10

# pH in water before heat treatment of O=C([O-])O.[Na+] [NaHCO3, sodium bicarbonate] = 7

###

For each record, write down the corresponding pH in water after heat treatment.
# ASSAY TEXT: pH in water of pH regulators before and after heat treatment
# Type: physicochemical
# CONDITION DETAILS: after heat treatment at 150° C. for 15 min
Number only, no unit.

Recorded pH in water after heat treatment (molecule O=C([O-])[O-].[Mg+2] [MgCO3] ): 7

Reported pH in water after heat treatment of O=C([O-])[O-].[Na+].[Na+] [Na2CO3, sodium carbonate] : 10

Memo: O=P([O-])([O-])O.[Na+].[Na+] [Na2HPO4 2H2O, disodium hydrogen phosphate] , reported pH in water after heat treatment: 6

Per the record, O.O.O.O.O.O.O.O.O.O.O.O.O=P([O-])([O-])[O-].[Na+].[Na+].[Na+] [Na3PO4 12H2O] has pH in water after heat treatment of 10

Field pH in water after heat treatment (entry O=C([O-])O.[Na+] [NaHCO3, sodium bicarbonate] ) reads 10
